Data origin: PubChem BioAssay AID1963423

tested on: 439559-082-T-J2-PDC complex spheroid growth; assay: Anticancer human tumor 439559-082-T-J2-PDC patient-derived colon adenocarcinoma cell line growth inhibition [Asc]; conditions: second compound 1 µM; first compound 0.3 µM; active compounds read low
For each record, write down the corresponding viability, T/C.

Answered cases to consult:
CCN1C(C(=O)NC23CCC(C(=O)O)(CC2)CC3)C(c2cccc(Cl)c2F)C2(C(=O)Nc3cc(Cl)ccc32)C12CCCCC2 (stereo unspecified) + CNC(C)C(=O)NC1CN(S(=O)(=O)c2cccc(S(=O)(=O)N3CCC4CCC(C(=O)NC(c5ccccc5)c5ccccc5)N4C(=O)C(NC(=O)C(C)NC)C3)c2)CCC2CCC(C(=O)NC(c3ccccc3)c3ccccc3)N2C1=O : 75.8%
Cc1nc(N2CCC3(CC2)COC(C)C3N)c(CO)nc1Sc1ccnc(N)c1Cl (stereo unspecified) + Cc1c(S(C)(=O)=O)c(-c2cc(F)cc(N3CCN(c4ccc(NS(=O)(=O)c5ccc(NC(CCN6CCC(C(=O)OCCCP(=O)(O)O)CC6)CSc6ccccc6)c(S(=O)(=O)C(F)(F)F)c5)cc4)CC3)c2)c(-c2ccc(Cl)cc2)n1C(C)C : 76.4%
NC(=O)C(=Cn1cnc(-c2cc(C(F)(F)F)cc(C(F)(F)F)c2)n1)c1cncnc1 + CNC(C)C(=O)NC1CN(S(=O)(=O)c2cccc(S(=O)(=O)N3CCC4CCC(C(=O)NC(c5ccccc5)c5ccccc5)N4C(=O)C(NC(=O)C(C)NC)C3)c2)CCC2CCC(C(=O)NC(c3ccccc3)c3ccccc3)N2C1=O : 74.2%
NC(=O)C(=Cn1cnc(-c2cc(C(F)(F)F)cc(C(F)(F)F)c2)n1)c1cncnc1 + Cc1c(S(C)(=O)=O)c(-c2cc(F)cc(N3CCN(c4ccc(NS(=O)(=O)c5ccc(NC(CCN6CCC(C(=O)OCCCP(=O)(O)O)CC6)CSc6ccccc6)c(S(=O)(=O)C(F)(F)F)c5)cc4)CC3)c2)c(-c2ccc(Cl)cc2)n1C(C)C : 67.4%
CCN1C(C(=O)NC23CCC(C(=O)O)(CC2)CC3)C(c2cccc(Cl)c2F)C2(C(=O)Nc3cc(Cl)ccc32)C12CCCCC2 (stereo unspecified) + Cc1c(S(C)(=O)=O)c(-c2cc(F)cc(N3CCN(c4ccc(NS(=O)(=O)c5ccc(NC(CCN6CCC(C(=O)OCCCP(=O)(O)O)CC6)CSc6ccccc6)c(S(=O)(=O)C(F)(F)F)c5)cc4)CC3)c2)c(-c2ccc(Cl)cc2)n1C(C)C : 84.5%

Could you now consider this next molecule?
Data request: Read off the recorded viability, T/C for Cc1nc(N2CCC3(CC2)COC(C)C3N)c(CO)nc1Sc1ccnc(N)c1Cl (stereo unspecified) + CNC(C)C(=O)NC1CN(S(=O)(=O)c2cccc(S(=O)(=O)N3CCC4CCC(C(=O)NC(c5ccccc5)c5ccccc5)N4C(=O)C(NC(=O)C(C)NC)C3)c2)CCC2CCC(C(=O)NC(c3ccccc3)c3ccccc3)N2C1=O
Data returned: 62.9%

* * *

test system: 439559-082-T-J2-PDC complex spheroid growth; assay: Anticancer human tumor 439559-082-T-J2-PDC cell line growth inhibition [Asc]; details: second compound 3 µM; first compound 0.316 µM; active compounds read low;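 also: spheroids exposed to agents for 7 days starting day 3 after seeding; percent of DMSO vehicle control viability with 100% = vehicle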
So basically: is viability, T/C under 60%? Then 1 (yes). Not under? Then 0 (no).

For orientation, consider the following solved cases.
O=C(c1ccc(F)c(F)c1Nc1ccc(I)cc1F)N1CC(O)([C@@H]2CCCCN2)C1 + CCN1C(C(=O)NC23CCC(C(=O)O)(CC2)CC3)C(c2cccc(Cl)c2F)C2(C(=O)Nc3cc(Cl)ccc32)C12CCCCC2 : 1 (yes)
CCN1CCN(Cc2ccc(Nc3ncc(F)c(-c4cc(F)c5nc(C)n(C(C)C)c5c4)n3)nc2)CC1 + CCN1C(C(=O)NC23CCC(C(=O)O)(CC2)CC3)C(c2cccc(Cl)c2F)C2(C(=O)Nc3cc(Cl)ccc32)C12CCCCC2 : 0 (no)
C=C(F)C(=O)N1CCN(c2nc(OCC3CCCN3C)nc3c2CCN(c2cccc4cccc(Cl)c24)C3)CC1CC#N (stereo unspecified) + CCN1C(C(=O)NC23CCC(C(=O)O)(CC2)CC3)C(c2cccc(Cl)c2F)C2(C(=O)Nc3cc(Cl)ccc32)C12CCCCC2 : 0 (no)
C#Cc1c(F)ccc2cc(O)cc(-c3ncc4c(N5CC6CCC(C5)N6)nc(OCC56CCCN5CC(F)C6)nc4c3F)c12 (stereo unspecified) + CCN1C(C(=O)NC23CCC(C(=O)O)(CC2)CC3)C(c2cccc(Cl)c2F)C2(C(=O)Nc3cc(Cl)ccc32)C12CCCCC2 : 1 (yes)

Below: the item to evaluate.
Data request: Is it true that viability, T/C reported for CNC(C)C(=O)NC1CN(S(=O)(=O)c2cccc(S(=O)(=O)N3CCC4CCC(C(=O)NC(c5ccccc5)c5ccccc5)N4C(=O)C(NC(=O)C(C)NC)C3)c2)CCC2CCC(C(=O)NC(c3ccccc3)c3ccccc3)N2C1=O (stereo unspecified) + CCN1C(C(=O)NC23CCC(C(=O)O)(CC2)CC3)C(c2cccc(Cl)c2F)C2(C(=O)Nc3cc(Cl)ccc32)C12CCCCC2 is less than 60%?
Data returned: 0 (no)
